Item-by-item account of IC50
- targetEntity: Aurora A (Homo sapiens)
- Sequence (O14965 1-403): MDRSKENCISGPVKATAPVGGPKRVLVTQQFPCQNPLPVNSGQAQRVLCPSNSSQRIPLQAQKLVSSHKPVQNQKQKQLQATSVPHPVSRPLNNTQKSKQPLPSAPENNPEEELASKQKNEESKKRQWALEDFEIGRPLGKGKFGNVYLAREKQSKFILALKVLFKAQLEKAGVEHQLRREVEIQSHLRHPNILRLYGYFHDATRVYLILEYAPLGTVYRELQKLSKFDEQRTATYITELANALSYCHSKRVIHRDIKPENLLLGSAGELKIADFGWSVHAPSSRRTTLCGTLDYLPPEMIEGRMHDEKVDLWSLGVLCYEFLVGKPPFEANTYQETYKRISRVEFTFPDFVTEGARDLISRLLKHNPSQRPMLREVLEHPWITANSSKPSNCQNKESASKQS
- assayProtocol: In vitro filtration assay for AURORA A inhibitory activity
- Format: biochemical
- statedConditions: 200 μM Kemptide substrate, [33P]-ATP, 1 μM unlabeled ATP, 25° C., 40 minutes; read-out: Aurora A see C.2 (pIC50) (converted)
measure: IC50 (nM)

> print(dat)
                                   compound  recordedmeasurement
1  COCCCN(Cc1ccc(Nc2ncc3cnn([C@H]4C[C@@H]5CC[C@H]4C5)c3n2)cc1)C(=O)OC(C)(C)C                  794
2  COCCCNS(=O)(=O)c1ccc(Nc2ncc3cnn(C4CCCCC4)c3n2)cc1                  631
3  CC(C)(C)OC(=O)N(Cc1ccc(Nc2ncc3cnn([C@H]4C[C@@H]5CC[C@H]4C5)c3n2)cc1)C1Cc2ccccc2C1                 6310
4  COCCCNCc1ccc(Nc2ncc3cnn([C@H]4C[C@@H]5CC[C@H]4C5)c3n2)cc1 [Co. No. 9]                  251

Reference for the values: patent US7947694B2
